molecular target: human V1a receptor (Homo sapiens, UniProt P37288); construct: expressed in transfected cells; host or cells: HEK293 cells, transiently transfected (membrane preparation); assay: human V1a receptor binding studies (3H-Vasopressin SPA, membranes of transfected HEK293 cells); conditions: 3H-Vasopressin displacement, HEK293 cell membranes, Ki by Cheng-Prussoff equation; read-out: pKi hV1a (converted)
Sequence (P37288 whole entry): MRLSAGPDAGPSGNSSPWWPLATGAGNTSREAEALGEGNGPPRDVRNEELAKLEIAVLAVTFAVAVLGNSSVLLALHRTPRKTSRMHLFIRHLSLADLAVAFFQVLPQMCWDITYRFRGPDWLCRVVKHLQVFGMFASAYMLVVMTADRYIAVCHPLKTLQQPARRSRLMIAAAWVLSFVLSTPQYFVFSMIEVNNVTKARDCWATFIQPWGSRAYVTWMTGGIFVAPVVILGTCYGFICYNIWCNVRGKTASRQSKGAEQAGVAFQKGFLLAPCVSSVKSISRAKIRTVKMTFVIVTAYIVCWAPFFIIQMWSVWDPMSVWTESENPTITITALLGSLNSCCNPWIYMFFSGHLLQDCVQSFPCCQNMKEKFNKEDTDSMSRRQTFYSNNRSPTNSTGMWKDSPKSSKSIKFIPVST
TEST READOUT: Ki (nM)

[
  {
    "COMPOUND": "Clc1ccc2c(c1)COCc1nnc([C@H]3CC[C@H](Oc4ccccn4)CC3)n1-2 [Example 5]",
    "TARGET ENTITY": "human V1a receptor (Homo sapiens, UniProt P37288)",
    "Ki, nM": 2.34
  },
  {
    "COMPOUND": "Clc1ccc2c(c1)COCc1nnc([C@H]3CC[C@H](OC4CCCC4)CC3)n1-2 [Example 3]",
    "TARGET ENTITY": "human V1a receptor (Homo sapiens, UniProt P37288)",
    "Ki, nM": 0.407
  },
  {
    "COMPOUND": "CC(C)O[C@H]1CC[C@H](c2nnc3n2-c2ccc(Cl)cc2COC3)CC1 [Example 1]",
    "TARGET ENTITY": "human V1a receptor (Homo sapiens, UniProt P37288)",
    "Ki, nM": 19.1
  }
]

[A] Clc1ccc2c(c1)COCc1nnc([C@H]3CC[C@H](Oc4cnccn4)CC3)n1-2 [Example 6]
[B] CCC(C)O[C@H]1CC[C@H](c2nnc3n2-c2ccc(Cl)cc2COC3)CC1 (stereo partly drawn) [Example 2]
[C] Clc1ccc2c(c1)COCc1nnc([C@H]3CC[C@H](Oc4ccccc4)CC3)n1-2 [Example 4]
# input Please produce an ascending ranking of these compounds based on Ki. Sort the labels as requested; that list is your answer.
# output C, B, A

Hey, just so you know, these numbers are from patent US8828989B2.
